- test_details: chemical genetic growth profiling, strain panel (AID 1159580);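 note: tested at 20 µM; growth read once vehicle control cultures reached saturation at 30 °C; 1 = growth at the plate median or of vehicle wells; lower values mean less growth of the strain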
- condition_parameters: S. cerevisiae deletion strains, growth OD, locus YDR137W, strain rgp1
Out of some 5,500 compounds screened, about 2,000 (36%) were called active. Not shown: some 18% with an inconclusive outcome. Cut-off read from the data, not from the text of the source: active = normalized growth mostly below about 0.91 (no sharp cut-off); inconclusive = no clear call, values can overlap the other calls; inactive = mostly above about 0.92. The list shows a part of the results.
Labels: Y = active, N = inactive

- compound: "Cn1c(=O)c2c(ncn2CCO)n(C)c1=O"
  discrete_label: "N"
- compound: "CN1CCN(C2=Nc3cc(Cl)ccc3Nc3ccccc32)CC1"
  discrete_label: "Y"
- compound: "O=C(Nc1ccc([N+](=O)[O-])cc1Cl)c1cc(Cl)ccc1O"
  discrete_label: "Y"
- compound: "CC(=O)OC1CCC23CC1(C)CCC2C(C)(C)CC3OC(C)=O (centres undefined)"
  discrete_label: "N"
- compound: "O=C(O)c1cc(=O)c2ccccc2[nH]1"
  discrete_label: "N"
- compound: "O=C(/C=C/c1ccccc1)c1ccc(O)cc1O"
  discrete_label: "Y"
- compound: "O=C(O)C1=C(CSc2nnnn2CS(=O)(=O)O)CS[C@@H]2C(NC(=O)[C@H](O)c3ccccc3)C(=O)N12 (some centres undefined)"
  discrete_label: "N"
- compound: "COc1cc(Cc2cnc(N)nc2N)cc(OC)c1OC"
  discrete_label: "N"
- compound: "CCC1(C2=NCCN2)Cc2ccccc2O1 (centres undefined)"
  discrete_label: "N"
- compound: "CC(=CC1CCC(C)C2C1=C(C)CC2O)C(=O)O (centres undefined)"
  discrete_label: "N"
- compound: "CC(C)=CCC/C(C)=C/CO"
  discrete_label: "N"
- compound: "CCCCCC/C=C\\CCCCCCCc1cccc(O)c1C(=O)O"
  discrete_label: "N"
- compound: "C=CC[C@@H]1/C=C(\\C)C[C@H](C)C[C@H](OC)[C@H]2O[C@@](O)(C(=O)C(=O)N3CCCC[C@H]3C(=O)O[C@H](/C(C)=C/[C@@H]3CC[C@@H](O)[C@H](OC)C3)[C@H](C)[C@@H](O)CC1=O)[C@H](C)C[C@@H]2OC"
  discrete_label: "Y"
- compound: "COC(=O)CC1C(C)(C(=O)c2ccoc2)CC2OCC34C(CC(=O)OC)C5(C)CC36OC3(C)OC1(C(OC(C)=O)C6(OC(C)=O)C5OC(=O)C(C)C)C24O3 (centres undefined)"
  discrete_label: "N"
- compound: "NNCc1ccccc1"
  discrete_label: "N"
- compound: "O=c1c(O)c(-c2ccccc2)oc2ccccc12"
  discrete_label: "Y"
- compound: "CC(=O)OC1CCC2(O)CC1(C)CCC1C2CC1(C)C (centres undefined)"
  discrete_label: "N"
- compound: "CN1CCC[C@H]1c1cccnc1"
  discrete_label: "N"
- compound: "CC12CCC(O)CC1CCc1ccccc12 (centres undefined)"
  discrete_label: "N"
- compound: "O=C1c2ccccc2C(=O)c2ccccc21"
  discrete_label: "N"
- compound: "OC[C@H]1O[C@@H](Oc2ccc(O)cc2)[C@H](O)[C@@H](O)[C@@H]1O"
  discrete_label: "N"
- compound: "Cn1c(=O)[nH]c2ncn(C)c2c1=O"
  discrete_label: "N"
- compound: "CNC(=O)Oc1ccccc1OC(C)C"
  discrete_label: "N"
- compound: "COc1ccccc1OCC(O)COC(N)=O (centres undefined)"
  discrete_label: "N"
- compound: "COc1ccc(NS(=O)(=O)c2ccc(N)cc2)nn1"
  discrete_label: "N"
- compound: "C/C(=C\\CO)CC[C@H](C)CCC[C@H](C)CCCC(C)C"
  discrete_label: "N"
- compound: "Cn1c(=O)c2c(ncn2C)n(C)c1=O"
  discrete_label: "N"
- compound: "CC(=O)c1c(O)cc(O)cc1O"
  discrete_label: "N"
- compound: "CC(NC(C)(C)C)C(=O)c1cccc(Cl)c1 (centres undefined)"
  discrete_label: "N"
- compound: "C=C[C@H]1CN2CC[C@H]1C[C@H]2[C@H](O)c1ccnc2ccccc12"
  discrete_label: "N"
- compound: "O=c1c(O)c(-c2ccccc2)oc2cc(O)ccc12"
  discrete_label: "Y"
- compound: "O=c1c(O)c(-c2ccc(O)cc2)oc2ccccc12"
  discrete_label: "Y"
- compound: "O=C(O)[C@H]1/C(=C/CO)O[C@@H]2CC(=O)N21"
  discrete_label: "N"
- compound: "CN1CCCCC1c1ccc(-c2cccnc2)nc1 (centres undefined)"
  discrete_label: "N"
- compound: "CCC[C@@H]1C[C@@H](C(=O)N[C@H]([C@H]2O[C@H](SC)[C@H](O)[C@@H](O)[C@H]2O)[C@H](C)O)N(C)C1"
  discrete_label: "N"
- compound: "NC(Cc1ccc(Cl)cc1)C(=O)O (centres undefined)"
  discrete_label: "N"
- compound: "CNC(C)[C@@H]1CC[C@@H](N)[C@@H](OC2[C@@H](N)C[C@@H](N)[C@H](OC3OC[C@](C)(O)[C@H](NC)[C@H]3O)[C@H]2O)O1 (some centres undefined)"
  discrete_label: "N"
- compound: "O=C(O)CC[N+](=O)[O-]"
  discrete_label: "N"
- compound: "CC(=O)NC1C(O)OC(COS(=O)(=O)O)C(OC2OC(C(=O)O)C(OC3OC(CO)C(OC4OC(C(=O)O)C(O)C(O)C4OS(=O)(=O)O)C(OS(=O)(=O)O)C3NS(=O)(=O)O)C(O)C2OS(=O)(=O)O)C1O (centres undefined)"
  discrete_label: "N"
- compound: "CON"
  discrete_label: "N"
- compound: "CC(=O)O[C@@H]1C2CC[C@@H]3C1(C[C@@H](O)[C@@]1(O)[C@@H](C[C@H](O)C1(C)C)[C@]3(C)O)C[C@@]2(C)O (some centres undefined)"
  discrete_label: "N"
- compound: "COc1cc(OC)c2c(OC)c(-c3ccc4c(c3)OCO4)c(=O)oc2c1"
  discrete_label: "Y"
- compound: "O=c1c(O)cccc2cc(O)c(O)c(O)c12"
  discrete_label: "Y"
- compound: "COC(=O)C[C@H]1C(C)(C)[C@@H](OC(C)=O)[C@@H]2CC3=C4CC(=O)O[C@@H](c5ccoc5)[C@]4(C)CCC3[C@@]1(C)C2=O (some centres undefined)"
  discrete_label: "N"

---

- test_details: chemical genetic growth profiling, strain panel (AID 1159580);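 note: tested at 20 µM; growth read once vehicle control cultures reached saturation at 30 °C; 1 = growth at the plate median or of vehicle wells; lower values mean less growth of the strain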
- condition_parameters: S. cerevisiae deletion strains, growth OD, locus YIL147C, strain SLN1, active compounds read low
Screen size: about 5,500 compounds; about 2,000 (36%) were called active. Inconclusive results (about 18%) are left out. Some of the results follow.
value_type: normalized growth

- compound: "CC(C)c1cccc(C(C)C)c1OC(=O)NC(=O)c1c(Cl)cccc1Cl"
  reported: 0.988
- compound: "O=C(Nc1ccc(F)cc1F)c1cc(Cl)ccc1O"
  reported: 0.938
- compound: "FC(F)(F)c1c2c(nc3cc(-c4ccco4)nn13)CCC2"
  reported: 0.971
- compound: "CC(C)Sc1c(Cl)cccc1NC(=O)Nc1cccc(C(F)(F)F)c1"
  reported: 0.979
- compound: "O=C(Nc1cc(Cl)cc(Cl)c1)c1cc(Cl)ccc1O"
  reported: 0.94
- compound: "O=C1c2ccccc2C(=O)c2sccc21"
  reported: 0.669
- compound: "C=CCC1C(=O)N(S(=O)(=O)c2ccc(Cl)cc2)N=C1CCC (stereo not drawn)"
  reported: 0.992
- compound: "COc1cc(C2CC(=S)Nc3ccccc3S2)cc(OC)c1OC (stereo not drawn)"
  reported: 0.98
- compound: "COC(=O)c1sccc1S(=O)(=O)Nc1cc(C(F)(F)F)cc(C(F)(F)F)c1"
  reported: 0.978
- compound: "N#CC(C(=O)Nc1cccc(C(F)(F)F)c1)C(=S)Nc1ccccc1Cl (stereo not drawn)"
  reported: 0.996
- compound: "CC(C)Sc1c(Cl)cccc1NC(=O)Nc1ccccc1"
  reported: 0.964
- compound: "NNC(=O)c1oc2nc(-c3ccccc3)cc(-c3ccccc3)c2c1N"
  reported: 0.984
- compound: "COc1cc(C2SCCS2)cc(Br)c1OC(=O)NC(=O)c1c(Cl)cccc1Cl"
  reported: 0.963

---

- test_details: chemical genetic growth profiling, strain panel (AID 1159580);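 note: tested at 20 µM; growth read once vehicle control cultures reached saturation at 30 °C; 1 = growth at the plate median or of vehicle wells; lower values mean less growth of the strain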
- condition_parameters: S. cerevisiae deletion strains, growth OD, locus YBR229C, strain ROT2, active compounds read low
Screen size: about 5,500 compounds; about 2,000 (36%) were called active. Roughly 18% stayed inconclusive and do not appear here. The list shows a part of the results.
Binary call on normalized growth with cut-off 1: strictly below means class 1, and equality or higher means class 0.

- compound: "Cc1c(-c2csc(-c3ccc(Cl)cc3)n2)sc2ccc(Cl)cc12"
  discrete_label: "class 0"
- compound: "CC(=O)OC1CCC2(O)CC1(C)CCC1C2CC1(C)C (configuration not stated)"
  discrete_label: "class 1"
- compound: "CC1=C(C(=O)O)N2C(=O)[C@@H](NC(=O)[C@@H](N)c3ccc(O)cc3)[C@H]2SC1"
  discrete_label: "class 1"
- compound: "Cc1cc(O)c2c(c1)C(=O)c1cc(O)cc(O)c1C2=O"
  discrete_label: "class 1"
- compound: "CC(=O)O[C@@H]1C2CC[C@@H]3C1(C[C@@H](O)[C@@]1(O)[C@@H](C[C@H](O)C1(C)C)[C@]3(C)O)C[C@@]2(C)O (some centres not stated)"
  discrete_label: "class 1"
